Biological target: recombinant human MAO-A (monoamine oxidase-A) (Homo sapiens)
Construct: purchased Sigma-Aldrich
Sequence (P21397 1-527): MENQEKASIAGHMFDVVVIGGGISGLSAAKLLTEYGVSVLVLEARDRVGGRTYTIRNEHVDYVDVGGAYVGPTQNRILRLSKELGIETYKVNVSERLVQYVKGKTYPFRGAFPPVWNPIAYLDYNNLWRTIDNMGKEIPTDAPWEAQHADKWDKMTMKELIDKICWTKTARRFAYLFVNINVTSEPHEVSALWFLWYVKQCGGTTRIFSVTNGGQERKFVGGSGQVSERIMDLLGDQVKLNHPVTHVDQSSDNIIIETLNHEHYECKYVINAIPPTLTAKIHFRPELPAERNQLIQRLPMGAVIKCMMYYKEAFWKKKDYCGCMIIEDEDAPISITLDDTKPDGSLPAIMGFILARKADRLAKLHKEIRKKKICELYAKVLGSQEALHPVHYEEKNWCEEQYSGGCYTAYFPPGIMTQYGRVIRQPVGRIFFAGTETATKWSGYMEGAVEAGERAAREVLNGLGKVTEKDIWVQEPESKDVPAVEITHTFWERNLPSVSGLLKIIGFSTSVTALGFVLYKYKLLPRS
Assay: Activity on recombinant human MAO-A, Amplex Red method, 0.5 mM tyramine substrate
Assay type: biochemical
Conditions: 0.5 mM tyramine substrate, read-out: Inhibitory Activity (IC50, nM) MAO-A
Method: The compounds according to the present technology were evaluated in terms of activity on recombinant human VAP-1 (R&D systems) by measuring the level of hydrogen peroxide in horseradish peroxidase (HRP)-coupled reaction using Amplex Red Hydrogen Peroxide Assay Kit (Molecular Probes, Invitrogen, USA). […] The inhibitory effect of the compounds was measured as a decrease (%) in the signal rate as compared to the control group without any inhibitor (only diluted DMSO). […]
Structures can show the parent of a compound that is named as a salt.
Listed compounds paired with reported IC50
Measured Metric: IC50

compound=NC/C(=C\F)Cn1ncn(-c2cnc(-c3cccc(-c4nc[nH]n4)c3)cn2)c1=O result="> 100000 nM"
compound="NC/C(=C/F)Cn1ncn(-c2ncc(-c3ccc4c(c3)OCO4)s2)c1=O [Example 232, hydrochloride]" result="24 nM"
compound="Cc1cc(-c2cccc(-n3cnn(C/C(=C/F)CN)c3=O)n2)cnc1F [Example 190, hydrochloride]" result="> 100000 nM"
compound="NC/C(=C\\F)Cn1ncn(-c2cccc(-c3ccc4c(c3)NC(=O)OC4)n2)c1=O [Example 200, hydrochloride]" result="> 100000 nM"
compound="NC/C(=C\\F)Cn1ncn(-c2ccnc(-c3ccc4c(c3)OCO4)c2)c1=O [Example 209, hydrochloride]" result="> 100000 nM"
compound="CN(C)c1ccc(-c2cccc(-n3cnn(C/C(=C/F)CN)c3=O)n2)cn1 [Example 188, hydrochloride]" result="> 100000 nM"
compound=NC/C(=C\F)Cn1ncn(-c2cccc(C#Cc3cnc4c(c3)NC(=O)CO4)n2)c1=O result="> 100000 nM"
compound="NC/C(=C\\F)Cn1ncn(-c2cccc(-c3ccc(N4CCCC4)cc3)n2)c1=O [Example 183, hydrochloride]" result="13000 nM"
compound=NC/C(=C\F)Cn1ncn(-c2ncc(-c3ccc4c(c3)NCC4=O)cc2F)c1=O result="> 100000 nM"
compound="CN1CCOc2cc(-c3cccc(-n4cnn(C/C(=C/F)CN)c4=O)n3)ccc21 [Example 202, hydrochloride]" result="> 100000 nM"
compound=CC(C)c1nc(-c2cccc(-c3cccc(-n4cnn(C/C(=C/F)CN)c4=O)n3)c2)no1 result="> 100000 nM"
compound="CC(C)c1nc(-c2ccc(-c3cc(-n4cnn(C/C(=C/F)CN)c4=O)ccn3)cc2)no1 [Example 205, hydrochloride]" result="> 100000 nM"
compound="CN(C)c1ccc(/C=C/c2cccc(-n3cnn(C/C(=C/F)CN)c3=O)n2)cc1 [Example 239, hydrochloride]" result="> 100000 nM"
compound=NC/C(=C\F)Cn1ncn(-c2cccc(C#Cc3ccc(N4CCOCC4)nc3)n2)c1=O result="> 100000 nM"
compound="Cc1cc(-c2cccc(-n3cnn(C/C(=C/F)CN)c3=O)n2)cc2c1NC(=O)CC2 [Example 197, hydrochloride]" result="81000 nM"

These measurements were taken from patent US11492335B2.
